# target_desc: T1, R295D/R296D mutant of full-length UHRF1 (human, UniProt Q96T88 1-793, R295D | R296D)
# T1 sequence: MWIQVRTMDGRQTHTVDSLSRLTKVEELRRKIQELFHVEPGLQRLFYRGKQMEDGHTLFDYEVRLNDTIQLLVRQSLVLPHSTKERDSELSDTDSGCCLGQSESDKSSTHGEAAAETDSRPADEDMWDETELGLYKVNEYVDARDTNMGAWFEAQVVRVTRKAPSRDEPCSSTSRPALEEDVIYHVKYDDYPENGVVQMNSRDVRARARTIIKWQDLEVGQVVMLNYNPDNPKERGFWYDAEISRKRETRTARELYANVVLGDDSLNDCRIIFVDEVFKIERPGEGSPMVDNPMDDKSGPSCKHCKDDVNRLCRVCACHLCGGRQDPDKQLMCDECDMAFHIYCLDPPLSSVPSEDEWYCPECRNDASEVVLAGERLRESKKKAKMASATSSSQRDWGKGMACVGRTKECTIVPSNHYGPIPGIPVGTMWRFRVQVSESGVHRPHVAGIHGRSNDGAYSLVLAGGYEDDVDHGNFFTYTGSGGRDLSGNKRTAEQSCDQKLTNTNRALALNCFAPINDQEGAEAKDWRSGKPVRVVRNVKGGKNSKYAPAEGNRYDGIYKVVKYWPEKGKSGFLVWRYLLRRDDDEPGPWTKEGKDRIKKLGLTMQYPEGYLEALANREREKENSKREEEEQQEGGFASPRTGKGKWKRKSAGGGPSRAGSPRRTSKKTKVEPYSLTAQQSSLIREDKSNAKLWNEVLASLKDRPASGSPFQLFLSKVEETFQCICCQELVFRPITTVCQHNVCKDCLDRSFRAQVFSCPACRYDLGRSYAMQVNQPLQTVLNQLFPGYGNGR
# test: ITC
readout: Kd
I'd appreciate it if you included the unit after the number.

Query block: # input binder: ARTKQTARKSTGGKAPR (trimethyl-lysine at K9) [H3K9me3 peptide (1–17)] ; wanted: its Kd
Result block: 36.8 µM
